# test-description: NCI Yeast Anticancer Drug Screen. Data for the mlh1 strain (AID 171);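 further: 0% = growth of vehicle-treated control cultures of the same strain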
# condition-label: S. cerevisiae mlh1 strain growth inhibition; at 33.0 µM; active compounds read high
About 79,000 compounds went through this panel and 15% of them were active in at least one assay; those are over-represented in the sample as a whole.
Reported growth inhibition values follow for various molecules
Numeric answer only, unit % assumed.

{"molecule": "Cc1cc(O)c(C(C)C)cc1SC#N", "growth inhibition, %": 33}
{"molecule": "BrC1C2CCC3OC3C12 (stereo unspecified)", "growth inhibition, %": 99}
{"molecule": "C[C@H](CCC1=NC(C)(C)CO1)C1CCC2[C@@H]3C(O)C[C@@H]4CC(O)CC[C@]4(C)C3CC[C@@]21C (stereo partly specified)", "growth inhibition, %": 87}

## Task What growth inhibition value was documented for this molecule, C/C(=N/NC(=S)Nc1ccccc1C)c1ccccn1 ?
## Result -9

## Task What growth inhibition value was documented for this molecule, CCOP(=O)(OCC)/C(C#N)=C/c1cccc(Oc2ccccc2)c1 ?
## Result 96

## Task What growth inhibition value was documented for this molecule, [N-]=[N+]=NC1(c2ccccc2)C(=O)Nc2ccccc2C1=O (stereo unspecified) ?
## Result 12

###

# test-description: NCI Yeast Anticancer Drug Screen. Data for the mlh1 strain (AID 171);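 further: 0% = growth of vehicle-treated control cultures of the same strain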
# condition-label: S. cerevisiae mlh1 strain growth inhibition; at 33.0 µM; active compounds read high
# Method: Growth inhibition of yeast strains with defined genetic alterations is measured as a screen for potential anti-cancer activity. Selected strains with alterations in DNA damage repair or cell cycle control were exposed to compounds and growth inhibition was measured relative to vehicle treated controls. The strain used in this assay is mlh1
This is part of a sample that, as a whole, favours compounds with a hit. Of some 79,000 tested, about 15% had one in any assay.
Everything with growth inhibition lower than 10% is no (0); everything else, including exactly 10%, is yes (1).

## Task Check if growth inhibition >= 10% (inclusive). Item: OB(O)c1ccccc1C#Cc1ccccc1
## Result yes (1)

## Task Check if growth inhibition >= 10% (inclusive). Item: ClCCCOc1c(Cl)cc(Cl)cc1Cl
## Result no (0)

###

# test-description: NCI Yeast Anticancer Drug Screen. Data for the rad50 strain (AID 155);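 further: 0% = growth of vehicle-only cultures of the same strain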
# condition-label: S. cerevisiae rad50 strain growth inhibition; at 3.7 µM; active compounds read high
About 79,000 compounds went through this panel and 15% of them were active in at least one assay; those are over-represented in the sample as a whole.
measured-endpoint: growth inhibition (%)
Numeric answer only, unit % assumed.

Here's what some known entries look like.
{"molecule": "CCCCCCCCCCCCCCCCCCN(C)C(COC)COP(=O)([O-])OCC[N+](C)(C)C (centres undefined)", "growth inhibition (%)": -11}
{"molecule": "CCCCCCCCCCCCCCN", "growth inhibition (%)": 17}
{"molecule": "N#Cc1nc(Nc2ccc(Cl)cc2)sc1N", "growth inhibition (%)": -9}
{"molecule": "O=C(/C(=C/c1ccc(O)cc1)c1ccccc1)c1ccccc1", "growth inhibition (%)": -2}
{"molecule": "O=C(NO)c1coc2ccccc2c1=O", "growth inhibition (%)": -5}
{"molecule": "Nc1ccc2c(c1)C(=O)c1c(F)cccc1-2", "growth inhibition (%)": 11}

// next entry
## Task What growth inhibition value was documented for this molecule, C=COC(=O)N[C@H]1CCc2cc(OC)c(OC)c(OC)c2-c2ccc(SC)c(=O)cc21 ?
## Result 4

Data origin, for the record: PubChem BioAssay (NCI)
